Tested on: BT-549 breast
Assay: NCI-60 one-dose screen, 48 h (100 = growth as untreated, 0 = no growth, -100 = all killed)
Details: 10 µM
Protocol: Growth inhibition of the BT-549 human tumor cell line is measured as a screen for anti-cancer activity. Cells are grown in 96 well plates and exposed to the test compound for 48 hours. Compounds are tested at a single concentration, which is 10^-5 M for most compounds. The reported endpoint is percent growth (GI% or GIPRCNT), where numbers from 0 - 100% represent growth inhibition, and numbers from -100% - 0 represent cell death. For example, a value of 40 represents 60% growth inhibition. […]
This is part of a sample that, as a whole, favours compounds with a hit. Of some 83,000 tested, about 20% had one in any assay.
QUANTITY_MEASURED: growth (%)
Report the figure in % without appending any unit label.

Below are worked cases with known answers.
{"COMPOUND": "CC(C)C1=C(O)C2=C(C(=O)C1=O)[C@@]1(C)CCCC(C)(C)[C@@H]1CC2", "growth, %": 106}
{"COMPOUND": "Cc1ccc(C2=NN(c3ccc(S(C)(=O)=O)cc3)C(=O)CC2)cc1", "growth, %": 11.3}
{"COMPOUND": "COc1cc(-c2nn(-c3cccc(NC(=O)NCCNC(=O)c4cccc(C(F)(F)F)c4)c3)cc2-c2ccncc2)ccc1Cl", "growth, %": 14.2}
{"COMPOUND": "Cc1nc2n(c(=O)c1CCN1CCC(c3noc4cc(F)ccc34)CC1)CCC[C@@H]2O", "growth, %": 99.4}
{"COMPOUND": "CCCCc1oc2ccccc2c1C(=O)c1cc(I)c(OCCN(CC)CC)c(I)c1", "growth, %": -50}
{"COMPOUND": "COc1ccc(Nc2cnc3cc(NS(=O)(=O)c4ccc(C)cc4)ccc3n2)cc1", "growth, %": 98.1}

Reported growth ( CCN(CC)CCCC(Nc1c2ccc(Cl)cc2nc2ccc(OC)cc12)c1ccc(F)cc1 (stereo not given) ) = 81.5

Reported growth ( NC(N)=N/N=C(\N=Nc1ccccc1)c1ccc(Cl)cc1 ) = 67.2

Reported growth ( Cc1ccc(C(C)C)c(O)c1NC(=O)OC(C)C ) = 96.1

Reported growth ( COc1ccc(C(=O)CC(CC(=O)c2ccc(OC)cc2)c2c(C)nn(-c3ccccc3)c2Cl)cc1 ) = 92
